Reference source: ChEMBL document CHEMBL5584242

- Test Description: in vitro
- Test Settings: human, liver microsomes, F
Listed here: items and their measured Fh.
Answer in %, number only, no unit symbol.

COC(c1ccc(F)cc1C(F)(F)F)c1cnc2n1CCN(c1cn[nH]c(=O)c1Cl)C2 (configuration not stated)	27.9

Lab note: next compound to report on.
Task: # return recorded Fh for entry COC(c1ccc(F)cc1Cl)c1cnc2n1CCN(c1cn[nH]c(=O)c1Cl)C2 (stereo in doubt; 12)
Output: 52.5

====

- Test Description: in vitro
- Test Settings: rat, liver microsomes
Parameter Measured: half-life (min)
Number only, in min; omit the unit.

Task: Please report the measured half-life for COC(c1ccc(F)cc1C(F)(F)F)c1cnc2n1CCN(c1cn[nH]c(=O)c1Cl)C2 (stereo unspecified)
Output: 34.7

====

- Test Description: in vitro
- Test Settings: mouse, liver microsomes, t1/2
Parameter Measured: half-life (min)
Number only, in min; omit the unit.

Task: Given the compound COC(c1ccc(F)cc1Cl)c1cnc2n1CCN(c1cn[nH]c(=O)c1Cl)C2 (stereo in doubt; 12) , write its reported half-life.
Output: 46.7

====

- Test Description: Half-life in ICR mouse at 10 mg/kg, po measured upto 24 hrs by LC-MS/MS analysis
- Format: ADME, organism-based
- Test Settings: in vivo
Parameter Measured: half-life (min)
# output: bare number, implied unit min

Task: Determine from records and report half-life for COC(c1ccc(F)cc1Cl)c1cnc2n1CCN(c1cn[nH]c(=O)c1Cl)C2 (stereo in doubt; 12)
Output: 118
